Form field: Population Membrane Permeable-Phenotype (%) (one value per entry).
Test system: HEK-293T
Assay: Multiplex assay against HEK293T
Assay type: toxicity, cell-based
Conditions: human, 48 h, 10 µM, compound concentration 10 uM, replicate 1
Dear colleague, please return just the value in %, with no unit written.

[[record]]
molecule = "COc1ccc2c(c1OCc1ccccc1)C[C@@H](C(=O)O)N(C(=O)C(c1ccccc1)c1ccccc1)C2"
units_symbol = "%"
measured = 0

[[record]]
molecule = "CN(C)C(=O)Cn1cc(-c2ccc(-c3nnc4ccccn34)cc2)cn1"
units_symbol = "%"
measured = 0

[[record]]
molecule = "CN1CCC(C(=O)c2cccc(NC(=O)c3c(F)cc(F)cc3F)n2)CC1"
units_symbol = "%"
measured = 0

[[record]]
molecule = "COc1ccc2[nH]c(I)c(CCNC(C)=O)c2c1"
units_symbol = "%"
measured = 1

[[record]]
molecule = "COCCn1c(C)c(C)s/c1=N\\C(=O)C1C(C)(C)C1(C)C"
units_symbol = "%"
measured = 2

[[record]]
molecule = "COc1c(Nc2ccc(S(C)(=O)=O)nc2C)ncnc1OC1CCN(C(=O)OC(C)C)CC1"
units_symbol = "%"
measured = 0

[[record]]
molecule = "CC(C)(C)c1ccc(CSc2cnn(C(C)(C)C)c(=O)c2Cl)cc1"
units_symbol = "%"
measured = 0

[[record]]
molecule = "O=C(Nc1cc(-c2ccccc2)nn1-c1ccccc1F)c1ccc([N+](=O)[O-])cc1"
units_symbol = "%"
measured = 2


Given O=c1ccc2ccc(OCCCCN3CCN(c4cccc5sccc45)CC3)cc2[nH]1 , state its recorded Population Membrane Permeable-Phenotype (%).
0

Entry CCc1nn2c(C)cc(C)nc2c1Cc1ccc(-c2nnc(C3CCNCC3)o2)cc1 please
0

Field entry: Nc1nc(-c2ccco2)c2cnn(Cc3ccccc3F)c2n1
0

And COc1cc2nc(N3CCN(C(=O)c4ccco4)CC3)nc(N)c2cc1OC.Cl [PRAZOSIN HYDROCHLORIDE] ?
2

###

System: U2OS
Assay: Multiplex assay against U2OS
Assay type: toxicity, cell-based
Details: human, 24 h, 10 µM, compound concentration 10 uM, replicate 1
Hi, to clarify the labels: 1 covers Population Healthy Nuclei (%) from 60% upward, -1 covers anything below 60%.

Use these answered entries as a reference point.
[[record]]
molecule = "O=C(O)CCC/C=C\\CC1C(O)CC(O)C1/C=C/C(O)COc1cccc(Cl)c1 (centres undefined)"
classification = 1

[[record]]
molecule = "CN1CCN(c2ccc(Nc3c4ccccc4nc4ccccc34)cc2)CC1.Cl.Cl.O"
classification = -1

[[record]]
molecule = "O=C(Nc1cc(-c2ccccc2)nn1-c1ccccc1F)c1ccc([N+](=O)[O-])cc1"
classification = 1


Dear colleague, could you confirm whether Cc1cc(=O)n(C)c2cc(N3C(=O)CC[C@H](NS(=O)(=O)CC(C)C)[C@H]3c3ccc(Cl)cc3)ccc12 has Population Healthy Nuclei (%) at or above 60%?
-1

Now try C[C@@H]1CC(=O)Nc2cccc(-c3ccc4c(c3)c(-c3cnn(C)c3)nn4C)c2N1 .
1

Similarly, COCCCN1CCC(NC(=O)c2cc(Cl)c(N)c3c2OCC3)CC1 [PRUCALOPRIDE] ?
1

###

System: HEK-293T
Assay: Multiplex assay against HEK293T
Format: toxicity, cell-based
Settings: human, 12 h, 10 µM, compound concentration 10 uM, replicate 2
Non-standard residues stand in square brackets, D forms with d. Residues, ends and D or L forms follow the SMILES beside them.
reported-property: Population Tubulin-Different-Phenotype (%)
Entry rule: numbers only, all in %.

Sample records with Population Tubulin-Different-Phenotype (%):
[[record]]
molecule = "CC(C)C[C@@H]1NC(=O)[C@@H](C(C)C)NC(=O)[C@@H]2CCCN2C(=O)[C@@H](CC(=O)O)NC(=O)[C@@H](Cc2c[nH]c3ccccc23)NC1=O [BQ-123] (cyclo(L[dW][dD]P[dV]))"
units_symbol = "%"
measured = 22

[[record]]
molecule = "CN1CCN(c2ccc(Nc3c4ccccc4nc4ccccc34)cc2)CC1.Cl.Cl.O"
units_symbol = "%"
measured = 92

[[record]]
molecule = "Nc1nc(CC(=O)Nc2ccc(CCNC[C@H](O)c3ccccc3)cc2)cs1 [MIRABEGRON]"
units_symbol = "%"
measured = 29

[[record]]
molecule = "Cl.Cl.OCCOCCN1CCN(C(c2ccccc2)c2ccc(Cl)cc2)CC1 (stereo not drawn) [HYDROXYZINE HYDROCHLORIDE]"
units_symbol = "%"
measured = 59

[[record]]
molecule = "CCc1nn2c(C)cc(C)nc2c1Cc1ccc(-c2nnc(C3CCNCC3)o2)cc1"
units_symbol = "%"
measured = 48

[[record]]
molecule = "COc1cc2nc(N3CCN(C(=O)COc4c(OC)cccc4C(C)C)CC3)nc(N)c2cc1OC.Cl.Cl"
units_symbol = "%"
measured = 66

[[record]]
molecule = "C=CCN1C[C@H](C(=O)N(CCCN(C)C)C(=O)NCC)C[C@@H]2c3cccc4[nH]cc(c34)C[C@H]21 [CABERGOLINE]"
units_symbol = "%"
measured = 55

[[record]]
molecule = "COc1c(Nc2ccc(S(C)(=O)=O)nc2C)ncnc1OC1CCN(C(=O)OC(C)C)CC1 [ADP-597]"
units_symbol = "%"
measured = 36

[[record]]
molecule = "Cc1cc(O)c(-c2ccc([C@@H](C)CN(C)C)cc2)c2c1[nH]c(=O)c1sccc12"
units_symbol = "%"
measured = 72

[[record]]
molecule = "CN1C[C@H](C(=O)N[C@]2(C)O[C@@]3(O)[C@@H]4CCCN4C(=O)[C@H](Cc4ccccc4)N3C2=O)C[C@@H]2c3cccc4[nH]cc(c34)C[C@H]21.CS(=O)(=O)O [DIHYDROERGOTAMINE MESYLATE]"
units_symbol = "%"
measured = 23


Consider the molecule CCn1c(-c2nc3cc(C(=O)N4CCCC(N)C4)ccc3n2C)cc2ccccc21.Cl (stereo not drawn) and give its measured Population Tubulin-Different-Phenotype (%).
64

Repeat with Cc1cc(NC(=O)NCCN2CCC(O)(Cc3ccccc3)CC2)c2ccccc2n1 [PALOSURAN]
42

Same for CN(C)C(=O)Cn1cc(-c2ccc(-c3nnc4ccccn34)cc2)cn1
18

Record: CC(C)C[C@H](CO)Nc1nc(S[C@@H](C)c2ccccc2)nc2nc(N)sc12 [AZD-8797]
39

Another molecule: COCCCN1CCC(NC(=O)c2cc(Cl)c(N)c3c2OCC3)CC1 [PRUCALOPRIDE]
35

// same read-out, input: Cc1ccc(OCC(O)C(C)NC(C)C)c2c1CCC2.Cl (stereo not drawn)
59

Same read-out for N[C@](CC1c2ccccc2Oc2ccccc21)(C(=O)O)[C@H]1C[C@@H]1C(=O)O ?
31

###

Test system: Fibroblast
Experiment: Multiplex assay against human fibroblast
Assay type: toxicity, cell-based
Conditions: 48 h, 10 µM, compound concentration 10 uM, replicate 2
Please assign False whenever Population Pyknosed Nuclei (%) is at or above 10%, and True whenever it is below.

Below are worked cases with known answers.
[[record]]
compound = "O=C(O)CCC/C=C\\CC1C(O)CC(O)C1/C=C/C(O)COc1cccc(Cl)c1 (stereo not given)"
experimental_system = "Fibroblast"
classification = "True"

[[record]]
compound = "O=c1nc2[nH]c3ccccc3nc-2c(=O)[nH]1"
experimental_system = "Fibroblast"
classification = "False"

[[record]]
compound = "Cc1nn(C)c2nc(NNC(=O)Nc3cc(Cl)nc(Cl)c3)cc(C(C)C)c12"
experimental_system = "Fibroblast"
classification = "True"


Here is another compound to look at.
Is Population Pyknosed Nuclei (%) strictly under 10% for the entry Cl.Cl.OCCOCCN1CCN(C(c2ccccc2)c2ccc(Cl)cc2)CC1 (stereo not given) [HYDROXYZINE HYDROCHLORIDE] ?
False

###

Tested on: Fibroblast
Assay: Multiplex assay against human fibroblast
Format: toxicity, cell-based
Details: 48 h, 1 µM, compound concentration 1 uM, replicate 1
Doc: threshold 10% (exclusive). Items with Population Pyknosed Nuclei (%) beneath it return label 1; others return label 0.

Reference set, count: 5
[[record]]
molecule = "COc1cc2nc(N3CCN(C(=O)c4ccco4)CC3)nc(N)c2cc1OC.Cl [PRAZOSIN HYDROCHLORIDE]"
classification = "label 0"

[[record]]
molecule = "O=c1nc2[nH]c3ccccc3nc-2c(=O)[nH]1 [ALLOXAZINE]"
classification = "label 0"

[[record]]
molecule = "COc1c(Nc2ccc(S(C)(=O)=O)nc2C)ncnc1OC1CCN(C(=O)OC(C)C)CC1 [ADP-597]"
classification = "label 0"

[[record]]
molecule = "CCc1nn2c(C)cc(C)nc2c1Cc1ccc(-c2nnc(C3CCNCC3)o2)cc1"
classification = "label 1"

[[record]]
molecule = "CC(C)(C)c1ccc(CSc2cnn(C(C)(C)C)c(=O)c2Cl)cc1 [PYRIDABEN]"
classification = "label 1"


Now look at this one.
Decide: Population Pyknosed Nuclei (%) of Cc1ccc(OCC(O)C(C)NC(C)C)c2c1CCC2.Cl (stereo not drawn) strictly below 10%?
label 0

This collection of values is drawn from ChEMBL document CHEMBL5058577.
